// data source = patent US8859535B2

Measured log10 of IC50 of individual entries
molecular target: human MDM2 protein (amino acids 2-188) (Homo sapiens, UniProt Q00987); construct: human MDM2 protein (amino acids 2-188); made in house; assay: p53-MDM2 TR-FRET assay (p53-MDM2 Assay 1); format: binding; details: 1.25 nM MDM2-biotinylated, 10 nM Cy5-p53 peptide; read-out: IC50 (μM) of p53-Hdm2 inhibition (TR-FRET) Assay 1
Sequence (Q00987 2-188): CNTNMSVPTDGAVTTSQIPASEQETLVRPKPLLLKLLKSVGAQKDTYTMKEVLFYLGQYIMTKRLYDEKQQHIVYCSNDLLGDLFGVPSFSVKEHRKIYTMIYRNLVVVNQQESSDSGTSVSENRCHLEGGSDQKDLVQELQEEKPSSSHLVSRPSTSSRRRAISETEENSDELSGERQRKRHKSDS
assay.endpoint: log10 of IC50 (log10 of the value in µM)

[[record]]
compound = "COc1cc2c(cc1OC(C)C)[C@H](c1ccc(Cl)cc1)N(c1ccc(C(C)(O)C3CN(CCC(F)(F)F)C3)cc1)C(=O)C2 (some centres unmarked)"
assay_endpoint = "log10 of IC50"
recorded_number = -1.44

[[record]]
compound = "COc1cc2c(cc1OC(C)C)[C@H](c1ccc(Cl)cc1)N(c1ccc(C3(O)CN(C(C)=O)C3)cc1)C(=O)C2"
assay_endpoint = "log10 of IC50"
recorded_number = -0.58

[[record]]
compound = "COc1cc2c(cc1OC(C)C)[C@H](c1ccc(Cl)cc1)N(c1ccc(C(C)(O)C3CCN(CCC(F)(F)F)CC3)cc1)C(=O)C2 (some centres unmarked)"
assay_endpoint = "log10 of IC50"
recorded_number = -2.24

[[record]]
compound = "COc1cc2c(cc1OC(C)C)[C@H](c1ccc(Cl)cc1)N(c1ccc([C@](C)(O)C3CCOCC3)c(F)c1)C(=O)C2 (single isomer, unassigned)"
assay_endpoint = "log10 of IC50"
recorded_number = -0.42

[[record]]
compound = "COc1cc2c(cc1OC(C)C)[C@H](c1ccc(Cl)cc1)N(c1ccc([C@](C)(O)C34CC5CC(CC(C5)C3)C4)cc1)C(=O)C2 (single isomer, unassigned)"
assay_endpoint = "log10 of IC50"
recorded_number = 0.36

[[record]]
compound = "COc1cc2c(cc1OC(C)C)[C@H](c1ccc(Cl)cc1)N(c1ccc([C@@](C)(O)C3CCOCC3)cc1)C(=O)C2 (single isomer, unassigned)"
assay_endpoint = "log10 of IC50"
recorded_number = -2.64

[[record]]
compound = "COc1cc2c(cc1OC(C)C)[C@H](c1ccc(Cl)cc1)N(c1ccc(C(C)(O)C3CN(C4CCN(C)CC4)C3)cc1)C(=O)C2 (some centres unmarked)"
assay_endpoint = "log10 of IC50"
recorded_number = -2.07

[[record]]
compound = "COc1cc2c(cc1OC(C)C)[C@H](c1ccc(Cl)cc1)N(c1ccc([C@@](C)(O)C3CC4CCC(C3)S4(=O)=O)cc1)C(=O)C2 (some centres unmarked)"
assay_endpoint = "log10 of IC50"
recorded_number = -3.05

